FYI, the data here is from patent US12281225B2.

- ASSAY_EXPLANATION: Analysis of active substance: preservative concentration before and after storage in VI-containing polymer solution
- Type: physicochemical
- CONDITION_PARAMETERS: in Polymer P3; storage 28 d at 40° C.
Binarize active-substance concentration, 28 d, 40° C. at 200 ppm; below is criterion met, at or above is criterion not met.

Illustrative cases are given below, each with its answer.
- Cn1sccc1=O: criterion met
- CCCCNC(=O)OCC#CI [Iodopropynyl butyl carbamate, iodopropynyl butyl carbamate]: criterion met
- Cn1sc(Cl)cc1=O: criterion met
- CCCCCCCCn1sc(Cl)c(Cl)c1=O: criterion met
- CCCCCCCCn1sccc1=O: criterion met

Query: In the record for O=c1[nH]sc2ccccc12 , is active-substance concentration, 28 d, 40° C. less than 200 ppm?
Result: criterion met

Query: Input CCCCCCCCCC[N+](C)(C)CCCCCCCCCC.[Cl-] [DDAC, didecyldimethylammonium chloride] ; condition: active-substance concentration, 28 d, 40° C. strictly below 200 ppm. Does it hold?
Result: criterion not met

Query: active-substance concentration, 28 d, 40° C. under 200 ppm? Item: CCCCCCCCCCCCCCCC[N+](C)(C)Cc1ccccc1.[Cl-] [Polymer 16-BAC, cetylalkonium chloride]
Result: criterion not met

###

Quick reference: active-substance concentration, 60 d 40° C. of the listed items.
- ASSAY_EXPLANATION: Analysis of active substance: preservative concentration before and after storage in VI-containing polymer solution
- Format: physicochemical
- CONDITION_PARAMETERS: in Polymer P1; storage 60 d at 40° C.
# value in ppm; strip the unit string

• CCCCCCCCn1sccc1=O [OIT, octylisothiazolinone] = 72
• O=c1[nH]sc2ccccc12 [BIT, 1,2-benzisothiazolin-3-one] = 69
• CCCCCCCCCCCCCCCC[N+](C)(C)Cc1ccccc1.[Cl-] [Polymer 16-BAC, cetylalkonium chloride] = 940
• Cn1sccc1=O [MIT, methyl-4-isothiazolin-3-one] = 131
• CCCCCCCCCC[N+](C)(C)CCCCCCCCCC.[Cl-] [DDAC, didecyldimethylammonium chloride] = 940

Looking up CCCCCCCCn1sc(Cl)c(Cl)c1=O [DCOIT, dichloroctylisothiazolinone] , I found its active-substance concentration, 60 d 40° C. recorded as 94

Cn1sc(Cl)cc1=O [CMIT, 5-chloro-N-methylisothiazolin-3-one] has a reported active-substance concentration, 60 d 40° C. of 59

Notebook: CCCCNC(=O)OCC#CI [Iodopropynyl butyl carbamate, iodopropynyl butyl carbamate] , active-substance concentration, 60 d 40° C. read as 84

###

- ASSAY_EXPLANATION: Analysis of active substance: preservative concentration before and after storage in VI-containing polymer solution
- Assay type: physicochemical
- CONDITION_PARAMETERS: in Polymer P6; before storage
Threshold 200 ppm. active-substance concentration, 0 d, RT below it: MET. active-substance concentration, 0 d, RT at it or above: NOT MET.

- O=c1[nH]sc2ccccc12: MET
- CCCCCCCCn1sccc1=O: NOT MET
- CCCCNC(=O)OCC#CI [Iodopropynyl butyl carbamate, iodopropynyl butyl carbamate]: NOT MET

Query: Does this compound meet the criterion active-substance concentration, 0 d, RT < 200 ppm? CCCCCCCCCC[N+](C)(C)CCCCCCCCCC.[Cl-] [DDAC, didecyldimethylammonium chloride]
Result: NOT MET

###

- ASSAY_EXPLANATION: Iodine color number according to DIN 6162:2014-09
- Format: physicochemical
- CONDITION_PARAMETERS: Polymer P1 with stabilizer; 60 d 40° C.
Parameter threshold = 6. Response is True when Iodine color number, 60 d 40° C. meets or exceeds it, else False.

* Cn1sccc1=O [MIT, methyl-4-isothiazolin-3-one] | False
* Cn1sc(Cl)cc1=O [CMIT, 5-chloro-N-methylisothiazolin-3-one] | True
* CCCCCCCCn1sc(Cl)c(Cl)c1=O [DCOIT, dichloroctylisothiazolinone] | True

Query: Determine whether measured Iodine color number, 60 d 40° C. meets or exceeds 6 for CCCCCCCCCCCCCCCC[N+](C)(C)Cc1ccccc1.[Cl-] [Polymer 16-BAC, cetylalkonium chloride]
Result: False

Query: Assess whether reported Iodine color number, 60 d 40° C. for CCCCNC(=O)OCC#CI [Iodopropynyl butyl carbamate, iodopropynyl butyl carbamate] sits at 6 or higher.
Result: True

Query: Assess whether reported Iodine color number, 60 d 40° C. for CCCCCCCCCC[N+](C)(C)CCCCCCCCCC.[Cl-] [DDAC, didecyldimethylammonium chloride] sits at 6 or higher.
Result: False

###

Overview of recorded active-substance concentration, 0 d, RT for various molecules
- ASSAY_EXPLANATION: Analysis of active substance: preservative concentration before and after storage in VI-containing polymer solution
- Format: physicochemical
- CONDITION_PARAMETERS: in Polymer P1; before storage
Write down the numeric answer in ppm and omit the unit.

- O=c1[nH]sc2ccccc12: 150

GET /value?item= Cn1sccc1=O &field=active-substance concentration, 0 d, RT returns 250

Lab note: CCCCCCCCCCCCCCCC[N+](C)(C)Cc1ccccc1.[Cl-] [Polymer 16-BAC, cetylalkonium chloride] gave active-substance concentration, 0 d, RT of 1000

The recorded active-substance concentration, 0 d, RT for entry CCCCCCCCn1sccc1=O equals 250

Per the record, CCCCCCCCCC[N+](C)(C)CCCCCCCCCC.[Cl-] [DDAC, didecyldimethylammonium chloride] has active-substance concentration, 0 d, RT of 950

Consider CCCCCCCCn1sc(Cl)c(Cl)c1=O . Its measured active-substance concentration, 0 d, RT is 300

Cn1sc(Cl)cc1=O yielded active-substance concentration, 0 d, RT of 150

The value of active-substance concentration, 0 d, RT measured for the molecule CCCCNC(=O)OCC#CI [Iodopropynyl butyl carbamate, iodopropynyl butyl carbamate] turned out to be 250

###

active-substance concentration, 14 d, 40° C. reference
- ASSAY_EXPLANATION: Analysis of active substance: preservative concentration before and after storage in VI-containing polymer solution
- Assay type: physicochemical
- CONDITION_PARAMETERS: in Polymer P5 (HP56); storage 14 d at 40° C.

- CCCCNC(=O)OCC#CI [Iodopropynyl butyl carbamate, iodopropynyl butyl carbamate]: 206 ppm

Reported active-substance concentration, 14 d, 40° C. of Cn1sc(Cl)cc1=O : 94 ppm

Per the record, CCCCCCCCCCCCCCCC[N+](C)(C)Cc1ccccc1.[Cl-] [Polymer 16-BAC, cetylalkonium chloride] has active-substance concentration, 14 d, 40° C. of 960 ppm

// recorded active-substance concentration, 14 d, 40° C. for O=c1[nH]sc2ccccc12 : 101 ppm

# active-substance concentration, 14 d, 40° C. (molecule: Cn1sccc1=O ) is 151 ppm

In plain terms, CCCCCCCCn1sccc1=O has a documented active-substance concentration, 14 d, 40° C. of 142 ppm

CCCCCCCCn1sc(Cl)c(Cl)c1=O yielded active-substance concentration, 14 d, 40° C. of 230 ppm

active-substance concentration, 14 d, 40° C. in this record for CCCCCCCCCC[N+](C)(C)CCCCCCCCCC.[Cl-] [DDAC, didecyldimethylammonium chloride] : 950 ppm

###

- Tested on: Yeast: Candida albicans, Candida valida, Rhodotorula rura, Saccharomyces cerevisiae
- ASSAY_EXPLANATION: Preservation test with periodic inoculation, yeast assessment
- Type: cell-based
- CONDITION_PARAMETERS: Polymer P4; freshly formulated
MEASURED_PARAMETER: Start sample measurement, yeast assess., 4th inoculation

Item CCCCCCCCn1sccc1=O ; assay system Yeast: Candida albicans, Candida valida, Rhodotorula rura, Saccharomyces cerevisiae; Start sample measurement, yeast assess., 4th inoculation reported as 0 (moderate growth, max. 400 colonies)

###

- ASSAY_EXPLANATION: Analysis of active substance: preservative concentration before and after storage in VI-containing polymer solution
- Format: physicochemical
- CONDITION_PARAMETERS: in Polymer P1; storage 28 d at 40° C.
Note to self: values exactly at 200 ppm are satisfied. So active-substance concentration, 28 d, 40° C. at or above 200 ppm is satisfied, below is not satisfied.

Illustrative cases are given below, each with its answer.
* CCCCCCCCCCCCCCCC[N+](C)(C)Cc1ccccc1.[Cl-] [Polymer 16-BAC, cetylalkonium chloride] | satisfied
* CCCCCCCCCC[N+](C)(C)CCCCCCCCCC.[Cl-] [DDAC, didecyldimethylammonium chloride] | satisfied
* CCCCNC(=O)OCC#CI [Iodopropynyl butyl carbamate, iodopropynyl butyl carbamate] | not satisfied
* O=c1[nH]sc2ccccc12 | not satisfied
* Cn1sc(Cl)cc1=O | not satisfied

Query: Determine whether this compound has active-substance concentration, 28 d, 40° C. no lower than 200 ppm: Cn1sccc1=O
Result: not satisfied

Query: Does the compound CCCCCCCCn1sc(Cl)c(Cl)c1=O have recorded active-substance concentration, 28 d, 40° C. that is 200 ppm or more?
Result: not satisfied

Query: Is the recorded value of active-substance concentration, 28 d, 40° C. equal to or greater than 200 ppm for this compound? CCCCCCCCn1sccc1=O
Result: not satisfied
